biological target: ALDH2 (Homo sapiens); construct: His-tag (N); made in house; host or cells: E. coli BL21; assay: ALDH2 activity with 20 μM of the compound (Table 3); format: biochemical; settings: 20 μM compound
Sequence (P05091 18-517): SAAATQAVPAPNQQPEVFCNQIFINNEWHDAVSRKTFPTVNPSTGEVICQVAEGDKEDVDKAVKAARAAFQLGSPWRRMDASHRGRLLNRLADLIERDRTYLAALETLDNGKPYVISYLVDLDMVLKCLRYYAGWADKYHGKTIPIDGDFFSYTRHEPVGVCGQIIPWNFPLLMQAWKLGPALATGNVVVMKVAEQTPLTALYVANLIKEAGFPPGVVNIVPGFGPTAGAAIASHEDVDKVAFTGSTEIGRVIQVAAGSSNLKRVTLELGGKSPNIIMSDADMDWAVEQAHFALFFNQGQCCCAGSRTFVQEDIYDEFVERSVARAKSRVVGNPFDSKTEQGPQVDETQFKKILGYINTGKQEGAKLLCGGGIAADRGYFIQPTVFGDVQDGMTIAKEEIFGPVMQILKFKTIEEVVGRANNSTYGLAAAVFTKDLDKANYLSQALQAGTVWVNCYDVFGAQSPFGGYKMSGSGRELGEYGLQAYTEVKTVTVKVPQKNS
measurement label: activity at 20 µM

// below: answered molecules
| query smiles | measurement label | test value |
| --- | --- | --- |
| COc1ccc(CNC(=O)c2cc(-c3ncccc3CO)ccc2OCC2CC2)cc1F | activity at 20 µM | > 250% |
| COc1ccc(CNC(=O)c2cc(-c3ncccc3CO)ccc2NCC2CC2)cc1F | activity at 20 µM | 150 to 250% |
| COc1ccc(CNC(=O)c2cc(-c3ccccc3CO)ccc2OCC2CC2)cc1F | activity at 20 µM | > 250% |
| COc1ccc(CNC(=O)c2cc(-c3ccccc3OC)ccc2OCC2CC2)cc1F | activity at 20 µM | 100 to 150% |
| COc1ccc(CNC(=O)c2cc(-c3cccnc3CO)ccc2OCC2CC2)cc1F | activity at 20 µM | > 250% |
| COc1ccc(CNC(=O)c2cc(-c3ccccc3CO)ncc2OCC2CC2)cc1F | activity at 20 µM | 150 to 250% |

Query: activity at 20 µM; subject: `COc1cc(F)c(CNC(=O)c2cc(-c3ncccc3CO)ccc2OCC2CC2)cc1F`
> 250%

Next molecule up: `COc1ccc(CNC(=O)c2cc(-c3cccnc3CO)cnc2OCC2CC2)cc1F`
150 to 250%

Next molecule up: `COc1ccc(CNC(=O)c2cc(-c3cnccc3CO)ccc2O)cc1F`
100 to 150%

Next molecule up: `COc1ccc(CNC(=O)c2cc(-c3cn(C)nc3CO)ccc2OCC2CC2)cc1F`
150 to 250%

Next molecule up: `COc1ccc(CNC(=O)c2cc(-c3cnccc3CO)ccc2OCC(C)C)cc1F`
> 250%

---

molecular target: ALDH2*1/*2 (Homo sapiens, UniProt P05091, E504K); construct: His-tag; made in house; host or cells: E. coli BL21 (pETDuet-1 co-expression); assay: ALDH2 enzymatic activity, NADH accumulation at 340 nm, acetaldehyde substrate, heterozygous form; assay type: biochemical; details: 10 μM compound; relative to baseline enzymatic activity (100%)
Sequence (P05091 18-517, stated change not applied): as the sequence (P05091 18-517) above
Sequence (P05091 18-517 E504K): as the sequence (P05091 18-517) above, with E487K counted along it
Kind request: treat 300% as inclusive, so activity at 10 µM at 300% or higher is criterion met, anything lower is criterion not met.

| query smiles | classification |
| --- | --- |
| COc1ccc(CNC(=O)c2cc(-c3cccc(F)c3CO)ccc2OCC2CC2)cc1F | criterion not met |
| COc1ccc(CNC(=O)c2cc(-c3cnccc3CO)ccc2OCC2CC2)cc1F | criterion met |
| COc1ccc(CNC(=O)c2cc(-c3cnccc3CO)cnc2OCC2CC2)cc1F | criterion met |
| COc1ccc(CNC(=O)c2cc(-c3ccncc3CO)ccc2OCC2CC2)cc1F | criterion met |
| COc1ccc(CNC(=O)c2cc(-c3sccc3CO)cnc2OCC2CC2)cc1F | criterion not met |

Kindly consider the entry below.
Say whether `COc1ccc(CNC(=O)c2cc(-c3ccc(F)cc3CO)ccc2OCC2CC2)cc1F` shows activity at 10 µM of 300% or more.
criterion not met

---

target: ALDH2*1/*1 (Homo sapiens, UniProt P05091); construct: His-tag (N); made in house; host or cells: E. coli BL21 (pTrcHis vector); assay: ALDH2 enzymatic activity, NADH accumulation at 340 nm, acetaldehyde substrate, wild type; assay type: biochemical; settings: 2.5 μM compound; relative to baseline enzymatic activity (100%)
Doc: threshold 200% (exclusive). Items with activity at 2.5 µM beneath it return Satisfied; others return Not satisfied.

| compound | classification |
| --- | --- |
| COc1ccc(CNC(=O)c2cc(-c3cscc3CO)cnc2OCC2CC2)cc1F [AC24] | Satisfied |
| COc1ccc(CNC(=O)c2cc(-c3c[n+]([O-])ccc3CO)ccc2OCC2CC2)cc1F [AC13] | Satisfied |
| COc1ccc(CNC(=O)c2cc(-c3cc(F)ccc3CO)ccc2OCC2CC2)cc1F [AC17] | Not satisfied |
| COc1ccc(CNC(=O)c2cc(-c3ccc(F)cc3CO)ccc2OCC2CC2)cc1F [AC23] | Not satisfied |
| COc1ccc(CNC(=O)c2cc(-c3ccccc3CO)ncc2OCC2CC2)cc1F [AC3] | Satisfied |
| COc1ccc(CNC(=O)c2cc(-c3c(CO)ccc[n+]3[O-])ccc2OCC2CC2)cc1F [AC14] | Satisfied |

Is the reported activity at 2.5 µM for COc1ccc(CNC(=O)c2cc(-c3cnccc3CO)ccc2OCC2CC2)cc1F [AC5] strictly below 200%?
Not satisfied

Next compound up: COc1ccc(CNC(=O)c2cc(-c3cccnc3CO)cnc2OCC2CC2)cc1F [AC11]
Satisfied

Next compound up: COc1ccc(CNC(=O)c2cc(-c3ccccc3CO)ccc2OCC2CC2)cc1F [AC2]
Not satisfied

Next compound up: COc1ccc(CNC(=O)c2cc(-c3ccsc3CO)ccc2OCC2CC2)cc1F [AC27]
Not satisfied

Next compound up: COc1ccc(CNC(=O)c2cc(-c3cscc3CO)ccc2OCC2CC2)cc1F [AC29]
Not satisfied

---

molecular target: ALDH2 (Homo sapiens); construct: His-tag (N); made in house; host or cells: E. coli BL21; assay: ALDH2 activity with 20 μM of the compound (Table 3); type: biochemical; details: 20 μM compound
The reader will find reported activity at 20 µM values listed item by item below.

| query smiles | activity at 20 µM |
| --- | --- |
| COc1ccc(CNC(=O)c2cc(-c3c(CO)cccc3N(C)C)cnc2OCC2CC2)cc1F | 150 to 250% |

Query: activity at 20 µM; subject: `COc1ccc(CNC(=O)c2cc(-c3nocc3CO)cnc2OCC2CC2)cc1F`
100 to 150%

Next compound up: `CNCc1ccccc1-c1ccc(OCC2CC2)c(C(=O)NCc2ccc(OC)c(F)c2)c1`
150 to 250%

Next compound up: `COc1ccc(CNC(=O)c2cc(-c3n[nH]cc3CO)cnc2OCC2CC2)cc1F`
100 to 150%

Next compound up: `COc1ccc(CNC(=O)c2cc(-c3cnccc3CO)ccc2OC2CCCCC2)cc1F`
> 250%

Next compound up: `COc1ccc(CNC(=O)c2cc(-c3c(F)cccc3CO)ccc2OCC2CC2)cc1F`
> 250%

Next compound up: `COc1ccc(CNC(=O)c2cc(-c3ncccc3CO)ccc2OCC2CCCCC2)cc1F`
150 to 250%

Next compound up: `COc1cc(OC)c(CNC(=O)c2cc(-c3ncccc3CO)ccc2OCC2CC2)cc1F`
150 to 250%

Next compound up: `COc1ccc(CNC(=O)c2cc(-c3c(CO)cccc3N(C)C)ccc2OCC2CC2)cc1F`
100 to 150%

---

target: ALDH2*1/*2 (Homo sapiens, UniProt P05091, E504K); construct: His-tag; made in house; host or cells: E. coli BL21 (pETDuet-1 co-expression); assay: ALDH2 enzymatic activity, NADH accumulation at 340 nm, acetaldehyde substrate, heterozygous form; assay type: biochemical; conditions: 2.5 μM compound; relative to baseline enzymatic activity (100%)
Doc: threshold 200% (exclusive). Items with activity at 2.5 µM beneath it return 1.0; others return 0.0.

These recorded examples may help you get a feel for the data.
| molecule | target of assay | classification |
| --- | --- | --- |
| COc1ccc(CNC(=O)c2cc(-c3cccnc3CO)cnc2OCC2CC2)cc1F [AC11] | ALDH2*1/*2 (Homo sapiens, UniProt P05091, E504K) | 1.0 |
| COc1ccc(CNC(=O)c2cc(-c3c(CO)cccc3N(C)C)cnc2OCC2CC2)cc1F [AC15] | ALDH2*1/*2 (Homo sapiens, UniProt P05091, E504K) | 1.0 |
| COc1ccc(CNC(=O)c2cc(-c3c(F)cccc3CO)ccc2OCC2CC2)cc1F [AC22] | ALDH2*1/*2 (Homo sapiens, UniProt P05091, E504K) | 1.0 |
| COc1ccc(CNC(=O)c2cc(-c3cnccc3CO)cnc2OCC2CC2)cc1F [AC10] | ALDH2*1/*2 (Homo sapiens, UniProt P05091, E504K) | 0.0 |

Is the reported activity at 2.5 µM for COc1ccc(CNC(=O)c2cc(-c3c(CO)ccc[n+]3[O-])ccc2OCC2CC2)cc1F [AC14] strictly below 200%?
1.0

Next molecule up: COc1ccc(CNC(=O)c2cc(-c3ccsc3CO)ccc2OCC2CC2)cc1F [AC27]
0.0

Next molecule up: COc1ccc(CNC(=O)c2cc(-c3cccc(F)c3CO)ccc2OCC2CC2)cc1F [AC21]
1.0

Next molecule up: COc1ccc(CNC(=O)c2cc(-c3ccncc3CO)ccc2OCC2CC2)cc1F [AC9]
0.0

Next molecule up: COc1ccc(CNC(=O)c2cc(-c3c(F)cccc3CO)cnc2OCC2CC2)cc1F [AC19]
1.0

Next molecule up: COc1ccc(CNC(=O)c2cc(-c3ncccc3CO)cnc2OCC2CC2)cc1F [AC8]
0.0

Next molecule up: COc1ccc(CNC(=O)c2cc(-c3ccncc3CO)cnc2OCC2CC2)cc1F [AC12]
1.0

Next molecule up: COc1ccc(CNC(=O)c2cc(-c3ccccc3CO)cnc2OCC2CC2)cc1F [AC1]
0.0

Next molecule up: COc1ccc(CNC(=O)c2cc(-c3c(CO)cccc3N(C)C)ccc2OCC2CC2)cc1F [AC16]
1.0
